Each entry below carries its measured IC50, system: Prostaglandin G/H synthase 2 (Mus musculus, UniProt Q05769).
Sequence (Q05769 whole entry): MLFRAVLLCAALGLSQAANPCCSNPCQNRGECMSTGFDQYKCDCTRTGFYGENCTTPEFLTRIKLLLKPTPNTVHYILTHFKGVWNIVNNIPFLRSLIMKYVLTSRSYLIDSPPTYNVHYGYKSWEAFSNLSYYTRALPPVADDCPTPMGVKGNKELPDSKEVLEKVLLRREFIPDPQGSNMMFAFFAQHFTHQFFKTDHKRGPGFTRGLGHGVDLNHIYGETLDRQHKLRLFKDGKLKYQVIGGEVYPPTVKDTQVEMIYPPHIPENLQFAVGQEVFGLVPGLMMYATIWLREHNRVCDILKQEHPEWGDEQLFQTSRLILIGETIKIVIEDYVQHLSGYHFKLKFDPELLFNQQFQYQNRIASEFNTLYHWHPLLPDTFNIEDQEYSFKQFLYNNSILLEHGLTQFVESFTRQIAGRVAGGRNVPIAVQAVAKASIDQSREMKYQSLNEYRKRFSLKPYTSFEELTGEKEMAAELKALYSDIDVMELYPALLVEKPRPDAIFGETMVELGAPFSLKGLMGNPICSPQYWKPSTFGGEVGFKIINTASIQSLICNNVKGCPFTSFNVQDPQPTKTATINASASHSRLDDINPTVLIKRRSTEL
readout_label: IC50 (nM)

Examples from the recorded data:
CCOC(=O)[C@@H](OCC)c1cc(-c2ccc(S(C)(=O)=O)cc2)n(-c2ccc(OC)cc2)c1C; 140
CCOC(=O)C(O)c1cc(-c2ccc(S(C)(=O)=O)cc2)n(-c2cccc(F)c2)c1C (racemic); 120

I = CCOC(=O)[C@H](OCC)c1cc(-c2ccc(S(C)(=O)=O)cc2)n(-c2cccc(F)c2)c1C
II = CCOC(=O)C(OCC)c1cc(-c2ccc(S(C)(=O)=O)cc2)n(-c2ccccc2)c1C (racemic)
Challenge: Quick check, higher IC50 between I and II ? Give the chosen item's label as your response.
Response given: I
